The following compounds are listed with their measured cell viability values.
tested on: P12-Ichikawa; experiment: cell viability relative to DMSO control; higher = less cytotoxic; conditions: RPMI 5 mM glucose + 10% FBS; 48 h; 5.12 µM

{"Molecular string": "O=C1NC(=O)/C(=C/c2ccc(-c3ccc(F)cc3O)o2)S1", "Measurement target": "P12-Ichikawa", "cell viability": "90.1%"}
{"Molecular string": "CC(C)[C@H](N)C(=O)OCCOC[N]1C=NC2=C1\\N=C(N)/NC2=O", "Measurement target": "P12-Ichikawa", "cell viability": "140%"}
{"Molecular string": "O=C(/C=C/c1ccc(O)cc1)c1ccc(O)cc1O", "Measurement target": "P12-Ichikawa", "cell viability": "107%"}
{"Molecular string": "C[C@H]1O[C@H](C[C@H](O)[C@@H]1O)O[C@H]2[C@@H](O)C[C@@H](O[C@@H]2C)O[C@H]3[C@@H](O)C[C@@H](O[C@@H]3C)O[C@H]4CC[C@@]5(C)[C@H](CC[C@@H]6[C@@H]5C[C@@H](O)[C@]7(C)[C@H](CC[C@]67O)C/8=C/C(=O)OC8)C4", "Measurement target": "P12-Ichikawa", "cell viability": "9.93%"}
{"Molecular string": "CC(C)(C)[C@H](NC(=O)c1ccc(N)c(Cl)c1)C(=O)N1CCC[C@H]1C(=O)N[C@H](C#N)CC(=O)O", "Measurement target": "P12-Ichikawa", "cell viability": "49.9%"}
{"Molecular string": "COc1cc(O)c2c(c1)C(=O)c1cc(C)cc(O)c1C2=O", "Measurement target": "P12-Ichikawa", "cell viability": "120%"}
{"Molecular string": "CCOC(=O)Nc1ccc(NCc2ccc(F)cc2)nc1N", "Measurement target": "P12-Ichikawa", "cell viability": "91%"}
{"Molecular string": "CN(C)CCN1C(=O)c2cccc3cc(N)cc(c23)C1=O", "Measurement target": "P12-Ichikawa", "cell viability": "92.4%"}
{"Molecular string": "C[C@@]1(C(=O)Nc2ccc(F)nc2)CCCN1c1nc(Nc2cc(C3CC3)[nH]n2)c2cccn2n1", "Measurement target": "P12-Ichikawa", "cell viability": "21.9%"}

###

system: P12-Ichikawa; assay: cell viability relative to DMSO control; higher = less cytotoxic; details: RPMI 5 mM glucose + 10% FBS; 48 h; 5.12 µM
Let's look at some molecules and their measured cell viability.
Readout: cell viability (%)

{"Molecule": "OC(CN1CCN(c2cccc(Cl)c2)CC1)C(c1ccccc1)c1ccccc1 (stereo not given)", "Val": 6.13}
{"Molecule": "COC1=CC=C(C=C1O)C/2=C/C(=O)C3=C(O2)C=C(O[C@@H]4O[C@H](CO[C@@H]5O[C@@H](C)[C@H](O)[C@@H](O)[C@H]5O)[C@@H](O)[C@H](O)[C@H]4O)C=C3O", "Val": 123}
{"Molecule": "NC(=O)NO", "Val": 77.1}
{"Molecule": "CC(C)OC1=CC=C2C(=C1)O\\C=C(/C2=O)C3=CC=CC=C3", "Val": 115}
{"Molecule": "CN(C)C1=C(Br)C=C(C=C1)C\\2NC3=C(\\C4=C2C(=O)CC(C)(C)C4)C5=CC=CC=C5C=C3 (stereo not given)", "Val": 105}
{"Molecule": "COc1cccc2c1CCCC2CCCN1CCN(C2CCCCC2)CC1 (stereo not given)", "Val": 114}
{"Molecule": "CCOC1=CC=CC=C1N\\2C(=O)C3=C(C=CC=C3)\\N=C2C(C)N4CCN(CC4)C(=O)COC5=CC=C(Cl)C=C5 (stereo not given)", "Val": 9.87}
{"Molecule": "COC1=CC=C2/C3=N/CCN3\\C(=N/C2=C1OC)NC(=O)C4=CC=CN=C4", "Val": 78.8}
{"Molecule": "COc1ncc(-c2ccc3c(Nc4cc(Oc5cc(F)cc(F)c5)cc(C(=O)O)c4)c([S+](=O)([O-])NC4CC4)cnc3c2)c(OC)n1", "Val": 79.6}
{"Molecule": "COC(=O)N1CC2(CC2)C[C@H](C(=O)NO)[C@H]1C(=O)N1CCN(c2ccccc2)CC1", "Val": 14.2}
